Entries annotated with measured pKi
# study.system: human recombinant GST-PAK1-KD protein (Homo sapiens, UniProt Q13153)
# Construct: residues #249-545 of human PAK1, UniProtKP/Swiss Q13153; His6 (N); made in house; host or cells: Sf9 insect cells, pAcGP67 baculovirus expression vector
# Sequence (Q13153 249-545): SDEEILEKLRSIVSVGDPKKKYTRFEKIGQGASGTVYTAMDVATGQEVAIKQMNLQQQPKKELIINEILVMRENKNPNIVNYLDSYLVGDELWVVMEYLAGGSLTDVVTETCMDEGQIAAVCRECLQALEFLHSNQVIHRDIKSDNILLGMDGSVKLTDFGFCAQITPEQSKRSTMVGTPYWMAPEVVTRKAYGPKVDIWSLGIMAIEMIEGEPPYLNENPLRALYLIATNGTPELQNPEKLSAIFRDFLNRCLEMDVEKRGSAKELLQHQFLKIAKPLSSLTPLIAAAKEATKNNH
# method.notes: GST-PAK1-KD (kinase domain) biochemical assay, microfluidic mobility shift
# run.parameters: Table I, PAK1 Ki class; read-out: Ki
pKi: −log10 of the molar value.

| compound | pKi |
| --- | --- |
| C[C@H](Nc1nccc(Nc2cc(C3CCCO3)[nH]n2)n1)c1ccc2[nH]ccc2c1 (stereo partly drawn) | 6.00 to 6.60 |
| c1cc(CNc2nccc(Nc3cc(CC4CC4)[nH]n3)n2)c2cc[nH]c2c1 | 6.60 to 7.30 |
| Fc1cnc(NCc2cccc3[nH]cnc23)nc1Nc1cc(C2CC2)n[nH]1 | > 7.30 |

These measurements were taken from patent US8637537B2.
